assay: Inhibition of HCV 1a H77 NS3/4A protease using RetS1 as a substrate by fluorescence resonance energy transfer cleavage assay
OBSERVED PROPERTY: Ki

Input line: Give its Ki value. Item: COc1ccc2c(O[C@@H]3C[C@H]4C(=O)N[C@]5(C(=O)NS(=O)(=O)C6CC6)C[C@H]5/C=C\CCCCN(C)C(=O)[C@@H]4C3)cc(-c3nc(C(C)C)cs3)nc2c1C [SIMEPREVIR]
Output line: 0.5 nM

====

tested on: Hepatitis C virus; test: Antiviral activity against HCV 1a H77 infected in human HuH7 cells assessed as viral RNA level after 72 hrs by quantitative reverse transcriptase PCR; assay type: functional, organism-based, Hepacivirus hominis; settings: genotype 1a H77, Huh-7, 72 h
OBSERVED PROPERTY: EC50 (nM)
State just the number; it will be interpreted in nM.

Input line: Give its EC50 value. Item: COc1ccc2c(O[C@@H]3C[C@H]4C(=O)N[C@]5(C(=O)NS(=O)(=O)C6CC6)C[C@H]5/C=C\CCCCN(C)C(=O)[C@@H]4C3)cc(-c3nc(C(C)C)cs3)nc2c1C
Output line: 28.4

====

experiment: Ratio of AUC (0 to 31 hrs) in Sprague-Dawley rat thymus to AUC (0 to 31 hrs) in Sprague-Dawley rat plasma at 40 mg/kg, po administered as single dose; type: ADME, organism-based; design: dose 40 mg/kg, route oral
OBSERVED PROPERTY: Kp
A bare number is all that is needed in reply.

Input line: Give its Kp value. Item: COc1ccc2c(O[C@@H]3C[C@H]4C(=O)N[C@]5(C(=O)NS(=O)(=O)C6CC6)C[C@H]5/C=C\CCCCN(C)C(=O)[C@@H]4C3)cc(-c3nc(C(C)C)cs3)nc2c1C [SIMEPREVIR]
Output line: 0.5

====

test: Cytotoxicity against human HT1080 cells after 3 to 4 days by resazurin proliferation assay; assay type: cell-based, HT-1080
OBSERVED PROPERTY: CC50
Returns: string containing the numeric result and its unit.

Input line: Give its CC50 value. Item: COc1ccc2c(O[C@@H]3C[C@H]4C(=O)N[C@]5(C(=O)NS(=O)(=O)C6CC6)C[C@H]5/C=C\CCCCN(C)C(=O)[C@@H]4C3)cc(-c3nc(C(C)C)cs3)nc2c1C [SIMEPREVIR]
Output line: 16 µM

All figures here come from ChEMBL document CHEMBL1671650.
